Origin of the recorded values: PubChem BioAssay (NCI)

Give measured TGI for each item. Keep answers brief.
tested on: M19-MEL melanoma; assay: NCI tumour cell line growth inhibition, 48 h

Recorded TGI, per entry:
# molecule, target.of.assay, result
records = [
    ("O=P(Nc1ccccc1)(Oc1ccccc1)N(CCCl)CCCl (stereo not drawn)", "M19-MEL melanoma", "> 100 µM"),
    ("CCC1(OC(=O)CN)C(=O)OCc2c1cc1n(c2=O)Cc2cc3ccccc3nc2-1 (stereo not drawn)", "M19-MEL melanoma", "0.237 µM"),
    ("C#CC1(O)CCC2[C@@H]3CCc4cc(Oc5nc(F)nc(-c6c7ccccc7c(SCC)n6CCC)n5)ccc4C3CC[C@@]21C (stereo partly drawn)", "M19-MEL melanoma", "> 100 µM"),
    ("COC1=C(C)C(=O)C2=C(C1=O)C1C3CC4=C(C(=O)C(OC)=C(C)C4=O)C(CNC(=O)C(C)O)N3C(C#N)C(C2)N1C (stereo not drawn)", "M19-MEL melanoma", "< 0.01 µM"),
    ("COc1ccc(C(=O)CC2=Nc3nnc(CCCCCCCc4nnc5n4C(=O)C(CC(=O)c4ccc(OC)cc4)=N5)n3C2=O)cc1", "M19-MEL melanoma", "> 100 µM"),
]

Could you report TGI for every entry in the following list?
1. NCCNC(=O)c1cccc2cc3ccccc3nc12
2. CCn1c2c(c3ccccc31)[C@@H](c1ccc(Cl)cc1)CC1C(=O)N(c3ccccc3)C(=O)C21 (stereo partly drawn)
3. Cc1nc(/C=C2\C(=O)C=Cc3ccccc32)c(O)o1

Data returned:
5.34 µM
> 100 µM
> 100 µM

====

Give measured TGI for each item. Keep answers brief.
test system: MDA-MB-231 breast; assay: NCI tumour cell line growth inhibition, 48 h

Recorded TGI, per entry:
# molecule, result
data = [
    ("N#C/C(=N\\Nc1ccccc1)C(=O)Nc1cc(-c2ccccc2)nn1-c1ccccc1", "> 100 µM"),
    ("Cc1ccc(S(=O)(=O)N/N=C2\\CC3CC4CCC2C4C3)cc1 (stereo not drawn)", "> 100 µM"),
    ("CCOC(=O)C(=CNC(=S)N=Nc1c(O)[nH]c2ccccc12)C(=O)OCC", "> 100 µM"),
    ("COc1ccc(/C(C#N)=C/c2cc(OC)c(OC)c(OC)c2)cc1", "> 100 µM"),
    ("CCN(CC)c1ccc(/C=C2\\CCc3ccc([N+](=O)[O-])cc3C2=O)cc1", "> 100 µM"),
]

Could you report TGI for every entry in the following list?
1. COC(=O)c1c2c(cc3c1CC1(Cc4cc5c(c(C(C)=O)c4C1)CCCC5)C3)CCCC2 (stereo not drawn)
2. O[C@@H]1CCC[C@@H]2NC[C@@H](c3ccc4c(c3)OCO4)[C@H]12
3. Cc1cc2c(c(S(=O)(=O)c3ccccc3[N+](=O)[O-])c1)NCCC2
4. CCCCCC[C@@H](C)NC(=O)c1ccc(Nc2nc3ccccc3c3occc23)cc1

Data returned:
1. > 100 µM
2. > 100 µM
3. > 100 µM
4. > 100 µM

====

system: NCI-H460 lung; test: NCI tumour cell line growth inhibition, 48 h
readout: TGI

Recorded TGI, per entry:
# compound, TGI
data = [
    ("CCOC(=O)C1=C(C)N(NC(N)=O)C2(N)N(NC(N)=O)C(C)=C(C(=O)OCC)C12C(=O)OCC (stereo unspecified)", "> 100 µM"),
    ("O=C1CSC(c2ccc([N+](=O)[O-])cc2)N1c1ccc(-c2ccc(-n3c(-c4ccccc4)nc4ccccc4c3=O)cc2)cc1 (stereo unspecified)", "> 100 µM"),
    ("Cc1cc2n[n+]3[n-]cc(-c4ccccc4)n3c2cc1[N+](=O)[O-]", "> 100 µM"),
    ("C=CC(C)C1(CCCOCc2ccccc2)C(=S)N2CCC3(CC24CCCC14)OCCO3 (stereo unspecified)", "> 100 µM"),
    ("CC(=O)O[C@H]1C[C@@H](OC(C)=O)[C@@](C)(O)[C@@H]2[C@@H](OC(C)=O)[C@@]3(O)[C@H](/C=C(/CO)[C@H]4O[C@H]4[C@@H](OC(C)=O)[C@@]12C)OC(=O)[C@@H]3C", "> 25 µM"),
]

Okay, next one:
Data request: Indicate its recorded TGI; the compound in question is `CCCCCCCC(=O)SCC/C=C/[C@@H]1CC(=O)NCc2nc(cs2)C2=N[C@@](C)(CS2)C(=O)N[C@@H](C(C)C)C(=O)N1`
Data returned: > 100 µM

====

system: MALME-3M melanoma; assay: NCI tumour cell line growth inhibition, 48 h
readout: TGI

Recorded TGI, per entry:
# compound, result
data = [
    ("O=C(c1cccs1)N1CCCN(C(=O)c2cccs2)C1=S", "> 100 µM"),
    ("CCn1c2c(c3ccccc31)[C@@H](c1ccc(Cl)cc1)CC1C(=O)N(c3ccccc3)C(=O)C21 (some centres undefined)", "> 100 µM"),
]

Could you report TGI for every entry in the following list?
1. C=C(C)[C@H]1C2=CC(C)=C(O2)[C@@H](O)[C@H](C(=C)C)CCC2=C[C@H]1OC2=O
2. C/C(CC(=O)Nc1ccccc1C)=N/NS(=O)(=O)c1ccc(C)cc1
3. C/C=C(\C)C(=O)O[C@@H]1CC(C)(C)CC2C3=CCC4[C@]56CC[C@](O)(OC5)C(C)(C)C6CC[C@@]4(C)C3(C)CC[C@]21C(=O)O (some centres undefined)
4. COc1ccc(C(=O)CC2=Nc3nnc(CCCCCCCc4nnc5n4C(=O)C(CC(=O)c4ccc(OC)cc4)=N5)n3C2=O)cc1
5. Nn1c(=O)[nH]c2ncn(Cc3ccccc3)c2c1=O
6. Nc1nc(SCc2ccccc2Cl)cc(C(=O)O)n1
7. CC1=NOC(=O)/C1=C/c1ccc([N+](=O)[O-])cc1

Data returned:
> 100 µM
> 100 µM
> 100 µM
> 100 µM
> 100 µM
> 100 µM
> 100 µM

Could you report TGI for every entry in the following list?
1. Cc1cc(S(=O)(=O)Nc2nncn2-c2ccc(Cl)cc2)c(S)cc1Cl
2. CCOC(=O)C(Cc1ccccc1)NC(=O)c1[nH]cnc1/N=N/N(C)C (centres undefined)
3. CCOC(=O)CCN1C(=O)C(=O)N(c2ccc(OC)cc2)C1=S
4. COc1ccc2oc(-c3ccc(OC)c(OC)c3OC)cc(=O)c2c1
5. Cc1ccc(S(=O)(=O)c2ccc(C)cc2[N+](=O)[O-])cc1
6. N/N=C(\c1nc2ccc(Cl)cc2[nH]c1=O)C(O)c1ccc(Cl)c(Cl)c1 (centres undefined)
7. Cc1cccc(C)c1N1C(=O)C(=O)C(c2nc3ccccc3s2)/C(=N/NC(=O)c2ccccc2O)C1=O (centres undefined)

Data returned:
1. > 10 µM
2. > 100 µM
3. > 100 µM
4. > 100 µM
5. > 100 µM
6. > 100 µM
7. > 100 µM

Could you report TGI for every entry in the following list?
1. Cc1cc2c(c(S(=O)(=O)c3ccccc3[N+](=O)[O-])c1)NCCC2
2. COC(=O)c1c(C)cccc1C1CN=NC12Cc1cc(C)cc(C)c1C2=O (centres undefined)
3. COC(=O)C(CC(=O)Nc1ccc(Cl)c(Cl)c1)C(=O)C(=O)Nc1ccc(Cl)c(Cl)c1 (centres undefined)

Data returned:
1. > 100 µM
2. > 100 µM
3. > 100 µM

====

system: RXF 393 renal; assay: NCI tumour cell line growth inhibition, 48 h
Give measured TGI for each item. Keep answers brief.

Could you report TGI for every entry in the following list?
1. CCCCc1ccc(Nc2nc(Cl)c3ccn(C4CC(Oc5ccc(C)cc5)C(COc5ccc(C)cc5)O4)c3n2)cc1 (stereo not drawn)
2. CC(C)(C)NC(=O)/C(=C\Sc1ccccc1)c1ccccc1
3. COC(=O)c1c(C)cccc1C1CN=NC12Cc1cc(C)cc(C)c1C2=O (stereo not drawn)

Data returned:
> 46.4 µM
> 100 µM
> 100 µM

====

Give measured TGI for each item. Keep answers brief.
test system: U251 CNS; test: NCI tumour cell line growth inhibition, 48 h

Recorded TGI, per entry:
# compound, TGI
records = [
    ("O=c1[nH]nc(Nc2ccccc2)c2nnn(C3CCCCC3)c12", "> 100 µM"),
    ("Cc1nc2ccccn2c1NC(=O)NNC(=S)Nc1ccc(F)cc1", "> 100 µM"),
    ("C=CCOC(=O)N1c2ccc(O)cc2[C@@]23O[C@@]24[C@@H]1C#C/C=C\\C#C[C@]3(O)C(OC)(OC)C[C@@H]4C", "> 100 µM"),
    ("COC1=CC(=O)C=C(OC)C1=O", "64.5 µM"),
    ("CC1(C)C2CCC1C(=O)[C@@]1(C=CC(=O)CC1)C2 (stereo partly drawn)", "> 100 µM"),
    ("Cc1cc(C)c(C(=O)O)c(SSc2cc(C)cc(C)c2C(=O)O)c1", "> 100 µM"),
    ("CN1CCc2c(sc3ncn(Nc4ccc(Cl)cc4)c(=N)c23)C1", "> 100 µM"),
]

Okay, next one:
Data request: Indicate its recorded TGI; the compound in question is `C[C@H]1COCCN1c1cc(C2(S(=O)(=O)C3CC3)CC2)nc(-c2ccc(NC(=S)NCCO)cc2)n1`
Data returned: 32.2 µM
